B1: Homeobox protein cut-like 1, residues 941 to 1008; numbered along this chain, P39880 (parent)
chain: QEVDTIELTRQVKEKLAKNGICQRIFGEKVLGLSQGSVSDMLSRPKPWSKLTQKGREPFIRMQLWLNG

variants of: B1; experiment: abundance fitness (aPCA) (normalised: wild type 0, dead -1); higher = more abundant; growth selection in yeast, the domain comes from the species named; details: Homo sapiens
quantity_kind: abundance fitness
In your answer, state the number alone without any accompanying words.

Some variants with recorded abundance fitness:
> print(dat)
   sequence.variant  number
1              K50C   -0.07
2              S37M  -0.126

Which abundance fitness is listed for `A17V` ?
-0.087
